Just for reference, PubChem BioAssay (NCI) is where these values come from.

assay: NCI Yeast Anticancer Drug Screen. Data for the sgs1 strain (AID 173); details: S. cerevisiae sgs1 mutant, at 3.7 µM
Compounds without any hit were thinned out: in the full panel of roughly 79,000, 15% have a hit. Calls of active or inactive are those of the source. Cut-off read from the data, not from the text of the source: active = growth inhibition above about 70%; inactive = the rest. Starred links: 1 amine or outer side, 2 acyl side, 3 side chain; linkers in the order of their positions; H or OH if unused. Positions of bridges follow the written chain, without caps; N, C: chain ends. Non-standard residues stand in square brackets, D forms with d. Residues, ends and D or L forms follow the SMILES beside them. Chains are numbered I, II in the order given. Actinocin(9to1) = Cc1c2oc3c(C)ccc(C(=O)[*:1])c3nc-2c(C(=O)[*:2])c(N)c1=O; aThr = C[C@H](O)[C@H](N)C(=O)O; NMeV = CN[C@H](C(=O)O)C(C)C; Sar = CNCC(=O)O
The reply should be one of these categories: TRUE = active, FALSE = inactive

Q: Fill in: this test's call for Clc1ccc(C(c2ccc(Cl)cc2)N2CCNCC2)cc1 is ___
Result: FALSE

Q: // outcome(item) with item = Cc1ccc(N(C=O)c2c([N+](=O)[O-])cc([N+](=O)[O-])c3c2=[N+]([O-])CN=3)cc1
Result: FALSE

Q: What call does the record list for CCOc1ccccc1N1C(=O)CC(Sc2ccccc2N)C1=O (configuration not stated) ?
Result: FALSE

Q: What did this assay record as the result for c1ccc(N/N=C2\CC(c3ccccc3)Oc3ccccc32)cc1 (configuration not stated) ?
Result: FALSE

Q: Given Cc1nc2ccccc2c(=O)n1NC(=O)c1ccc(CS)cc1 , state the outcome it received in this test.
Result: FALSE

Q: For this molecule, state the assay outcome: c1ccc2cc(OCC3CO3)c(OCC3CO3)cc2c1 (configuration not stated)
Result: FALSE

Q: I would be grateful if you could indicate the recorded call for CCOC(=O)C1=C(C)NC(C)=C(C(=O)OCC)C1c1cccc([N+](=O)[O-])c1 .
Result: FALSE

Q: Call for entry Cc1cnc(/C=N\NC(N)=S)c2cccc(N)c12 :
Result: FALSE

Q: So what was the verdict on Cc1c2oc3c(C)ccc(C(=O)N[C@@H]4C(=O)N[C@H](C(C)C)C(=O)N5CCC[C@H]5C(=O)N(C)CC(=O)N(C)[C@@H](C(C)C)C(=O)O[C@H]4C)c3nc-2c(C(=O)N[C@@H]2C(=O)N[C@H](C(C)C)C(=O)N3CCC[C@H]3C(=O)N(C)CC(=O)N(C)[C@@H](C(C)C)C(=O)O[C@H]2C)c(N)c1=O (I: [aThr][dV]P[Sar][NMeV] / II: [aThr][dV]P[Sar][NMeV]; ester I:1-I:C, II:1-II:C; linker I:N-II:N via Actinocin(9to1)) in this test?
Result: FALSE

Q: // outcome(item) with item = CC1(C)CC(=O)C(C(CC(c2ccccc2)c2cc3c(cc2O)OCO3)C2=C(O)CC(C)(C)CC2=O)=C(O)C1 (configuration not stated)
Result: FALSE

Q: What did this assay record as the result for CN(C)CCNC(=O)c1cccc2nc3c4ccccc4c4ccccc4c3nc12 ?
Result: FALSE

Q: Name the outcome recorded for CC(C)c1ccc(C2NC(=S)NC3=C2c2ccccc2C3=O)cc1 (configuration not stated) in the assay.
Result: FALSE

Q: So what was the verdict on Nc1cccc2cc(Cl)cnc12 in this test?
Result: FALSE

Q: Returns: the outcome recorded for CC1=Cc2ccc(C)cc2C(=O)C1=O in this assay.
Result: FALSE

Q: Called result for Cc1ccc(C(C)C)c(C(=C2C=CC(=[N+](C)C)C=C2)c2c(C(C)C)ccc(C)c2O)c1O
Result: FALSE

Q: Check the results log: what was the call for CCN(CC)c1ccc(N=Nc2cc(S(=O)(=O)O)ccc2O)c(O)c1 ?
Result: FALSE

Q: Please state the recorded outcome for this molecule: COc1ccc(/C=C2\CCc3ccccc3C2=O)cc1OC
Result: FALSE

Q: Which outcome was assigned to Cc1ccc(Nc2n[nH]c(=S)s2)cc1C in this test?
Result: FALSE

Q: # lookup: test call for Cc1cc(N(CCOS(C)(=O)=O)CCOS(C)(=O)=O)ccc1C=O
Result: FALSE

Q: Entry CNC(=O)OCc1c(COC(=O)NC)c(C)n(-c2ccc(Cl)c(Cl)c2)c1C : call = ?
Result: FALSE

Q: Dear all, I need the recorded test outcome for CCCCCCC(CCl)c1sc(-c2csc(CCNC(=O)OC(C)(C)C)n2)nc1C(=O)OC (configuration not stated) , thank you.
Result: FALSE

Q: Recorded call for S=C1NC2=C(CSC/C2=C\c2ccc(Cl)cc2)C(c2ccc(Cl)cc2)N1 (configuration not stated) ?
Result: FALSE

Q: For [N-]=[N+]=NC1CC(n2ccc(=O)[nH]c2=O)OC1COC(c1ccccc1)(c1ccccc1)c1ccccc1 (configuration not stated) , which call appears in the assay record?
Result: FALSE

Q: Which outcome was assigned to O=C1C(Br)=CC(Br)(Br)C=C1Br in this test?
Result: FALSE

Q: Short answer needed: outcome of this test for O=C(Cc1ccccc1F)NC1=C(Cl)C(=O)c2ccccc2C1=O ?
Result: FALSE

Q: So what was the verdict on Cc1ccc(P(c2ccc(C)cc2)c2ccc(C)cc2)cc1 in this test?
Result: FALSE

Q: // param item: O=C1c2ccccc2C(=O)C1C(c1ccc(F)cc1)C1C(=O)c2ccccc2C1=O ; yields the recorded call
Result: FALSE

Q: Tell me the assay call for CCC1SC(=S)N(c2ccc(Cl)cc2)C1=O (configuration not stated) please.
Result: FALSE

Q: State the result this test recorded for CCOC(=O)/C(O)=C(/C=N/C(=S)Nc1c(CC)cccc1CC)C(=O)OCC .
Result: FALSE

Q: What did this assay record as the result for C#CC1=CC(=O)C(OC)=CC1=O ?
Result: FALSE

Q: Tell me the recorded outcome of this test for O=C1c2ccccc2C2CCC1c1ccccc12 (configuration not stated) .
Result: FALSE

Q: Status in this test for Cc1c(N=Nc2ccc(Cl)cc2)c(C)n(C2OC(CO)C(O)C(O)C2O)c(=S)c1C#N (configuration not stated) ?
Result: FALSE

Q: Each molecule tested received a call. Report the one for COc1cc(C(C)C(C(=O)O)C(=O)C(=O)O)cc(OC)c1OC (configuration not stated) .
Result: FALSE

Q: Record lookup: outcome of this test for CCCCCCCCCC/C=C\CC(=O)O ?
Result: FALSE

Q: Would you mind telling me which call this test gave CC(=O)O/N=C/c1c2ccccc2cc2ccccc12 ?
Result: FALSE

Q: So what was the verdict on CN(C)c1ccc(C(c2ccc(Cl)cc2)c2ccc(N(C)C)cc2)cc1 in this test?
Result: TRUE

Q: How was O=c1[nH]cc(F)c(=O)[nH]1 classified in this test?
Result: FALSE

Q: // param item: CCc1nc2ccc(N=Nc3c(O)ccc4ccccc34)cc2[nH]1 ; yields the recorded call
Result: FALSE

Q: State the result this test recorded for CN(C)/N=N/c1nc[nH]c1C(N)=O .
Result: FALSE

Q: What classification did O=S(=O)(CCC[C@H]1[C@@H](CCOCc2ccccc2)C2CCCN1O2)c1ccccc1 (some centres not stated) end up with in this test?
Result: FALSE

Q: Lab log entry: N#C/C(=C1C=C/C(=N\O)C(Cl)=C\1)c1ccccc1 — outcome as called in the assay?
Result: FALSE

Q: GET /call?item= CN(C)N1C(=O)SCC(c2ccccc2)(c2ccccc2)C1=O returns the recorded outcome of this test.
Result: FALSE

----------
experiment: NCI Yeast Anticancer Drug Screen. Data for the cln2 rad14 strain (AID 165); conditions: S. cerevisiae cln2 rad14 strain, at 50.0 µM (retest, dose inferred, filed as 5.0)
Compounds without any hit were thinned out: in the full panel of roughly 79,000, 15% have a hit. Active and inactive are the calls of the source. Cut-off read from the data, not from the text of the source: active = growth inhibition above about 70%; inactive = the rest.
Return exactly one item of True for active, False for inactive

Q: I would be grateful if you could indicate the recorded call for NCC(O)CSCc1ccc(Cl)cc1 (stereo not drawn) .
Result: False

Q: Query: recorded result category for CCOC(=O)/C(O)=C(/C=N/C(=S)Nc1c(CC)cccc1CC)C(=O)OCC in this test
Result: False

Q: Just curious, what result did c1ccc(C2=NNC3c4ccccc4-c4ccccc4N3C2)cc1 (stereo not drawn) get here?
Result: False

Q: Hey, what did the test say about O=Cc1ccccc1B(O)O ?
Result: True

Q: Called result for [N-]=[N+]=NC1CC(n2ccc(=O)[nH]c2=O)OC1COC(c1ccccc1)(c1ccccc1)c1ccccc1 (stereo not drawn)
Result: True

Q: Dear colleague, could you share the recorded outcome for CN(C)N1C(=O)SCC(c2ccccc2)(c2ccccc2)C1=O when you have a moment?
Result: False

Q: What did this assay record as the result for Cc1cc(N(CCOS(C)(=O)=O)CCOS(C)(=O)=O)ccc1C=O ?
Result: False

Q: // outcome(item) with item = Cc1ccc2oc(-c3cccc(N)c3)nc2c1
Result: False

Q: Which outcome was entered for the compound CSc1ccc2c(c1)C(N1CCN(C)CC1)Cc1ccccc1S2 (stereo not drawn) in this test?
Result: True

Q: Assay result, entry CN(C)CCC(=O)c1c[nH]c2ccccc12 — outcome?
Result: False

Q: Just curious, what result did COc1ccc(C(=O)NCCN(C)C)c2nc3ccccc3cc12 get here?
Result: False

Q: Assay result, entry O=C1C=CC(=O)N1c1ccc(Br)cc1Cl — outcome?
Result: True

Q: Check the results log: what was the call for O=S(=O)(CCC[C@H]1[C@@H](CCOCc2ccccc2)C2CCCN1O2)c1ccccc1 (stereo partly drawn) ?
Result: False

Q: Dear all, I need the recorded test outcome for c1cncc(C(Nc2cccc3cccnc23)Nc2cccc3cccnc23)c1 , thank you.
Result: False

Q: Any idea what this test logged for O=C1OC(c2ccc(Cl)cc2)Sc2ccccc21 (stereo not drawn) ?
Result: False

Q: Write down the call the test reported for this compound. Item: CC(C)OC(CCC#N)c1ccc(Cl)cc1 (stereo not drawn)
Result: False

Q: # lookup: test call for Cc1c2ccncc2c(C)c2c1oc1ccccc12
Result: True

Q: How was N=C(N)c1ccc(N=Nc2c(O)ccc3c2[nH]c2ccccc23)cc1 classified in this test?
Result: True

Q: Recorded test outcome, item O=C(N/N=C/c1ccc2c(c1)CCC2)c1ccccc1[N+](=O)[O-]
Result: True

Q: What was the test verdict on CNC(=O)OCc1c(COC(=O)NC)c(C)n(-c2ccc(Cl)c(Cl)c2)c1C ?
Result: False

Q: Given Oc1ccc(Cc2nccc3cc(O)c(O)cc23)cc1O , state the outcome it received in this test.
Result: False

Q: GET /call?item= O=C(O)NCC1CCCCC1 (tested in a mixture with another compound) returns the recorded outcome of this test.
Result: False

Q: Hey, what did the test say about O=C(CSS(=O)(=O)O)c1ccccc1 ?
Result: False

Q: Which outcome did this test record for the compound CC(C)(C(=O)NN)c1ccccc1 ?
Result: True

Q: Please let me know the test result on file for COc1ccc2c(Cc3c4ccccc4cc4ccccc34)cncc2c1O .
Result: True

Q: Please state the recorded outcome for this compound: Cc1nc2ccc(NCCN(C)C)c3c(=O)c4ccccc4n1c23
Result: False

Q: Which result was noted for this compound in the test: Cc1ccc2c(/C=C/c3ccc(N(C)C)cc3)ccnc2c1C
Result: False

Q: Test call, this compound: c1ccc(N/N=C2\CC(c3ccccc3)Oc3ccccc32)cc1 (stereo not drawn)
Result: False

Q: Kindly provide the recorded test outcome for the following compound: CCOC(=O)C1=C(C)NC(C)=C(C(=O)OCC)C1c1ccc(Cl)cc1
Result: True

Q: Please let me know the test result on file for O=C(CCC(=O)c1ccc(O)cc1)Oc1ccc(O)cc1 .
Result: False

Q: Recorded test call requested for CCOC(=O)C1=C(C)NC(C)=C(C(=O)OCC)C1c1cccc([N+](=O)[O-])c1
Result: False

Q: Entry C=Cc1c(C)c(O)cc2c1-c1ccc(O)c(C)c1CC2 : call = ?
Result: False

Q: For N=c1oc2ccccc2cc1-c1nc2ccccc2[nH]1 , which call appears in the assay record?
Result: False

Q: Outcome logged for O=S(=O)(O)c1ccc2c(N=Nc3c(O)ccc4ccccc34)cccc2c1 in this assay:
Result: False

Q: What outcome does the record of this test show for Cc1ccccc1C1=C(CC(=O)O)c2ccccc2CC1C (stereo not drawn) ?
Result: False

Q: Outcome logged for CN(C)N=Nc1ccc(NC=O)cc1 in this assay:
Result: False

Q: Which outcome did this test record for the compound CC(=O)c1ccc(NCN2C(=O)c3ccccc3C2=O)cc1 ?
Result: False

Q: Write down the call the test reported for this compound. Item: O=c1oc(C(C(F)(F)F)C(F)(F)F)nc2ccccc12
Result: False

Q: Fill in: this test's call for CCN(CC)c1cccc(Nc2nc3ccccc3s2)c1 is ___
Result: False

Q: Call for entry O=[N+]([O-])C(=C(NCc1ccccc1)NCc1ccccc1)C(Cl)=C(Cl)Cl :
Result: False

Q: What is the recorded call for this compound in the test? CN(C)CCn1c2ccccc2c2nc3cc4ccccc4cc3nc21
Result: True

Q: Which outcome did this test record for the compound Cc1cccc(N2CCN(C(=O)/C(=C/c3ccccc3)NC(=O)c3ccccc3)CC2)c1 ?
Result: False

Q: Can you look up the reported call for CC[N+]1(C)CCC(O)(/C=C/c2ccc(Cl)c(Cl)c2)C(C(=O)/C=C/c2ccc(Cl)c(Cl)c2)C1 (stereo not drawn) for me?
Result: True

Q: Outcome? Cc1c(N=Nc2ccc(Cl)cc2)c(C)n(C2OC(CO)C(O)C(O)C2O)c(=S)c1C#N (stereo not drawn)
Result: False

Q: What did this assay record as the result for Oc1ccc(Br)cc1C=Nc1cccc(C(F)(F)F)c1 ?
Result: True

Q: Identify the outcome logged in this assay for the compound shown: O=S(=O)(Oc1c(Cl)cc(Cl)cc1Cl)c1ccccc1
Result: False

Q: For this compound, state the assay outcome: COc1ccc2nc(N/N=C/c3sccc3C)cc(C)c2c1
Result: True

Q: Field: outcome | Entry: CCOc1ccc2ccc3cccnc3c2n1
Result: False
